Ref: the supplement of paper PMC9170038

# Test system: MS2 coat protein
# test: apparent KD of MS2 coat protein; designed switch direction (-1 OFF switch, 1 ON switch): 1; higher = weaker reporter binding
# conditionContext: input ligand: none
Exercise: for every item that follows, state its recorded apparent KD of MS2 coat protein.
Answers are plain numbers, in nM.

AAUUAAGAUCAAGGAUAUCACGUCGUUUAGACGUGAGAAGGUGAUAAUUACAUGAGGAUCACCCAUGUAUAACAUGAAUUAAUU [SSNG1/9-B3] (Eterna round: R96, puzzle: Same State NG 1); 32.1
GGAGCCGGCCUAGGAUAUUUCAUCAAAAAACAUGAGGAUCACCCAUGUAGGCCAGAAGGCCUUGGGAAGAAGGAGGUCGGCUCC [Loop Effect - C24] (Eterna round: R96, puzzle: Same State NG 2); 19
GCAUUAGGCAUAGGAUAUCCAACAUGAGGAUCACCCAUGUCGCAGCGUGAAAAGAACGCUGCAAAGGAGAAGGAUGCGGUUUAC [Onususa] (Eterna round: R96, puzzle: Same State NG 2); 29.9
AGCGAACAUGAGGAUCACCCAUGUAGACCGCGUGUGAUAACACAGGAUAUCAAAGGAAGAAGGAGUGAGAAGGGUGGGAAGGAG [Default title] (Eterna round: R96, puzzle: Same State NG 3); 75.1

Next:
Asked: GET /values?readout=apparent KD of MS2 coat protein&item= GUUACAUGAGGAUCACCCAUGUAUGUGUGGGAGUAAGUGUCUUAGGAUAUCUGUUAUUUUAUUUAAGAGAAGGAAGAUUGUUGU [JMF's solution 39] (Eterna round: R96, puzzle: Same State NG 3)
Given back: 80.7
